Hello, the source for this data is ChEMBL document CHEMBL5038643, in case you need it.

Collected pIC50 values appear next to each entry.
# Tested on: RPMI-8226
# Run Description: Antiproliferative activity against human RPMI 8226 cells assessed as reduction in cell viability measured after 72 hrs by XTT assay
# Assay type: functional, cell-based
# Study Conditions: RPMI-8226, 72 h
Hey, just a heads up that pIC50 is the negative log base 10 of the concentration in molar.

Smiles Notation | pIC50
CCCCCCCCCC(=O)O[C@H]1[C@H](O[C@@H]2[C@H]3OC(=O)CCCCCCCCC[C@H](CCCCC)O[C@@H]4O[C@H](C)[C@H](O)[C@H](O)[C@H]4O[C@H](O[C@H]2C)[C@@H]3O)O[C@@H](C)[C@H](O[C@@H]2O[C@@H](C)[C@H](OC(=O)[C@@H](C)CC)[C@@H](O)[C@H]2O)[C@H]1O[C@@H]1O[C@@H](C)[C@H](O)[C@@H](O)[C@H]1O | 5.11

// next entry
Quick check: pIC50 of CCCCCCCCCCCCCCCCCCOC(=O)/C=C/c1ccc(O)c(O)c1 ?
5.03

* * *

# Test system: RPMI-8226
# Run Description: Antiproliferative activity against human RPMI 8226 cells assessed as reduction in cell viability measured after 72 hrs by XTT assay
# Format: functional, cell-based
# Study Conditions: RPMI-8226, 72 h
Assay Metric: IC50

Quick check: IC50 of CCCCCCCCCCCC(=O)O[C@H]1[C@H](O[C@@H]2[C@H]3OC(=O)CCCCCCCCC[C@H](CCCCC)O[C@@H]4O[C@H](C)[C@H](O)[C@H](O)[C@H]4O[C@H](O[C@H]2C)[C@@H]3O)O[C@@H](C)[C@H](O[C@@H]2O[C@@H](C)[C@H](OC(=O)[C@@H](C)CC)[C@@H](OC(=O)/C=C/c3ccccc3)[C@H]2O)[C@H]1O[C@@H]1O[C@@H](C)[C@H](O)[C@@H](O)[C@H]1O ?
> 10 µM

* * *

# Tested on: RPMI-8226
# Run Description: Antiproliferative activity against human RPMI 8226 cells assessed as reduction in cell viability measured after 72 hrs by XTT assay
# Type: functional, cell-based
# Study Conditions: RPMI-8226, 72 h
pIC50: −log10 of the molar value.
Assay Metric: pIC50

Quick check: pIC50 of CC(C)C[C@H](NC(=O)[C@H](Cc1ccccc1)NC(=O)c1cnccn1)B(O)O [BORTEZOMIB] ?
8.35

Quick check: pIC50 of CCCCCCCCCC(=O)O[C@H]1[C@H](O[C@@H]2[C@H]3OC(=O)CCCCCCCCC[C@H](CCCCC)O[C@@H]4O[C@H](C)[C@H](O)[C@H](O)[C@H]4O[C@H](O[C@H]2C)[C@@H]3O)O[C@@H](C)[C@H](O[C@@H]2O[C@@H](C)[C@H](OC(=O)[C@@H](C)CC)[C@@H](OC(=O)/C=C/c3ccccc3)[C@H]2O)[C@H]1O[C@@H]1O[C@@H](C)[C@H](O)[C@@H](O)[C@H]1O [PESCAPREIN XXIII] ?
< 5.00

Quick check: pIC50 of CCCCCCCCCCCC(=O)O[C@H]1[C@H](O[C@@H]2[C@H]3OC(=O)CCCCCCCCC[C@H](CCCCC)O[C@@H]4O[C@H](C)[C@H](O)[C@H](O)[C@H]4O[C@H](O[C@H]2C)[C@@H]3O)O[C@@H](C)[C@H](O[C@@H]2O[C@@H](C)[C@H](OC(=O)CCCCCCC)[C@@H](O)[C@H]2O)[C@H]1O[C@@H]1O[C@@H](C)[C@H](O)[C@@H](O)[C@H]1O ?
< 5.00

* * *

Collected IC50 values appear next to each entry.
# Tested on: RPMI-8226
# Run Description: Antiproliferative activity against human RPMI 8226 cells assessed as reduction in cell viability measured after 72 hrs by XTT assay
# Type: functional, cell-based
# Study Conditions: RPMI-8226, 72 h

Quick check: IC50 of CCCCCCCCCCCC(=O)O[C@H]1[C@H](O[C@@H]2[C@H]3OC(=O)CCCCCCCCC[C@H](CCCCC)O[C@@H]4O[C@H](C)[C@H](O)[C@H](O)[C@H]4O[C@H](O[C@H]2C)[C@@H]3O)O[C@@H](C)[C@H](O[C@@H]2O[C@@H](C)[C@H](OC(=O)C(C)C)[C@@H](OC(=O)/C=C/c3ccccc3)[C@H]2O)[C@H]1O[C@@H]1O[C@@H](C)[C@H](O)[C@@H](O)[C@H]1O ?
> 10 µM

Quick check: IC50 of CCCCCCCCCCCC(=O)O[C@H]1[C@H](O[C@@H]2[C@H]3OC(=O)CCCCCCCCC[C@H](CCCCC)O[C@@H]4O[C@H](C)[C@H](O)[C@H](O)[C@H]4O[C@H](O[C@H]2C)[C@@H]3O)O[C@@H](C)[C@H](O[C@@H]2O[C@@H](C)[C@H](OC(=O)[C@@H](C)CC)[C@@H](O)[C@H]2O)[C@H]1O[C@@H]1O[C@@H](C)[C@H](O)[C@@H](O)[C@H]1O ?
> 10 µM

Quick check: IC50 of C[C@H](CO)CC(=O)C[C@@H](C)CCC(=O)c1ccoc1 ?
> 10 µM
